biological target: Aldehyde dehydrogenase 1A1 (Homo sapiens); assay: qHTS Assay for Inhibitors of Aldehyde Dehydrogenase 1 (ALDH1A1); conditions: Purified ALDH1A1, NADH fluorescence, propionaldehyde substrate; series mostly up to 75.3 µM
The campaign covered roughly 220,000 compounds. About 16,000 (7.3%) were called active. Roughly 25% stayed inconclusive and do not appear here. Calls follow the shape of the dose curve; as a rule, active = well fitted inhibition curve with a large enough effect (not every such curve was filed as active); inconclusive = small, poorly fitted or top-dose-only effect, or another doubt; inactive = no such curve, though single readings can be large or run the other way. Shown is part of a subset that was picked to be rich in actives.
Reply using exactly one outcome from true (1) (active), false (0) (inactive)

# count of solved cases: 5
N#Cc1c(NC(=O)CSc2nc3ccccc3c(=O)n2Cc2ccco2)sc2c1CCCC2 : true (1)
O=C(CSc1nc(C2CC2)nc2ccccc12)Nc1ccc2c(c1)OCCO2 : false (0)
CC1CCC2(CC1)NC(=O)N(Cc1nnc(-c3cccs3)o1)C2=O (configuration not stated) : false (0)
Fc1cccc(CSc2nnc3ccc(-c4ccncc4)nn23)c1 : false (0)
O=C(CSc1nc2cc3c(cc2c(=O)n1CCC1=CCCCC1)OCO3)NCc1ccco1 : false (0)

Dear colleague, could you share the recorded outcome for Cn1c(=O)cc(OCC(=O)N2CCN(c3ccccc3F)CC2)c2ccccc21 when you have a moment?
false (0)

Dear colleague, could you share the recorded outcome for CCOc1ccc(NC(=O)c2cc(C)nc3ccccc23)cc1 when you have a moment?
false (0)

Dear colleague, could you share the recorded outcome for Cc1ccc(SCC(=O)Nc2ccc3c(c2)OCCO3)cc1 when you have a moment?
false (0)

Dear colleague, could you share the recorded outcome for CCC(c1nnnn1Cc1ccco1)N(CCc1ccccc1)Cc1cc2cccc(C)c2[nH]c1=O (configuration not stated) when you have a moment?
true (1)

----------
target: Aldehyde dehydrogenase 1A1 (Homo sapiens); assay: qHTS Assay for Inhibitors of Aldehyde Dehydrogenase 1 (ALDH1A1); details: Purified ALDH1A1, NADH fluorescence, propionaldehyde substrate; series mostly up to 75.3 µM
Among all 220,000 compounds or so, about 16,000 (7.3%) were called active. About 25% were inconclusive and are not listed. Calls follow the shape of the dose curve; as a rule, active = well fitted inhibition curve with a large enough effect (not every such curve was filed as active); inconclusive = small, poorly fitted or top-dose-only effect, or another doubt; inactive = no such curve, though single readings can be large or run the other way. The full list was thinned out, with actives kept by preference.
Reply using exactly one outcome from active, inactive

# count of solved cases: 4
O=[N+]([O-])c1ccc(NCCCO)c(C(F)(F)F)c1 : active
COc1cccc(OCCCN2CCCCCC2)c1 : active
c1c2c(cc3sc(N4CCCCC4)nc13)OCCO2 : active
O=C(Cc1ccc(Br)cc1)N1CCN(c2ccccn2)CC1 : inactive

Dear colleague, could you share the recorded outcome for Nc1ccccc1Sc1cc(Cl)nnc1Cl when you have a moment?
active

Dear colleague, could you share the recorded outcome for Cc1nc2nc[nH]n2c(=O)c1C/C=C/c1ccccc1 when you have a moment?
inactive

Dear colleague, could you share the recorded outcome for COc1ccc(OC)c(Cc2nnc(CCC(=O)NC3CCCC3)o2)c1 when you have a moment?
inactive

Dear colleague, could you share the recorded outcome for O=C1CSC(c2cccc(F)c2)N1c1ccccc1F (configuration not stated) when you have a moment?
active

----------
molecular target: Aldehyde dehydrogenase 1A1 (Homo sapiens); experiment: qHTS Assay for Inhibitors of Aldehyde Dehydrogenase 1 (ALDH1A1); conditions: Purified ALDH1A1, NADH fluorescence, propionaldehyde substrate; series mostly up to 75.3 µM; also: potency is read from the fitted curve at half-maximal effect
Among all 220,000 compounds or so, about 16,000 (7.3%) were called active. Not shown: some 25% with an inconclusive outcome. The full list was thinned out, with actives kept by preference.
property.name: Potency

Below are worked cases with known answers.
N#Cc1ccc(COC(=O)Cn2nnc(-c3ccccc3)n2)cc1 : inactive
COC(=O)c1ccc(NC(=O)CSc2nnc(Cc3cccn3C)n2-c2ccc(F)cc2)cc1 : 22.4 µM (active)
O=C1C(c2[nH]c3ccccc3c2O)=Nc2ccccc21 : 15.8 µM (active)
O=C1COc2ccc(C(=O)COC(=O)c3cccnc3Cl)cc2N1 : inactive
N#Cc1c(N)sc2c1CCN(C(=O)OCc1ccccc1)C2 : 10 µM (active)

// each listed compound needs a value for Potency
1. O=C(NCc1ccco1)c1ccc(NS(=O)(=O)c2cccc([N+](=O)[O-])c2)cc1
2. COc1ccc(OC)c(/C=N/NC(=O)CSc2nnc(C)n2-c2ccccc2)c1
3. CC(C)C(=O)Nc1c(O)c2ccccc2[nH]c1=O

["inactive", "inactive", "inactive"]
